- applied-conditions: pH 7.4
metric-name: log P0 (intrinsic permeability, PAMPA-Certramide)
One number for each entry.

Known results for compounds:
>  <compound>
COC(=O)Cc1ccc(O)cc1 [4-hydroxymethyl phenylacetate]

>  <reading>
-5.07

$$$$
>  <compound>
COc1ccccc1

>  <reading>
-4.34

$$$$
>  <compound>
CC(=O)CC(c1ccccc1)c1c(O)c2ccccc2oc1=O (stereo not drawn)

>  <reading>
-4.63

$$$$
>  <compound>
CCNc1nc(Cl)nc(NC(C)C)n1

>  <reading>
-4.67

$$$$
>  <compound>
CC(=O)[C@@]1(O)CC[C@H]2[C@@H]3CCC4=CC(=O)CC[C@]4(C)[C@H]3CC[C@@]21C [hydroxiprogesterone]

>  <reading>
-4.70

$$$$
>  <compound>
CCC1(CC)C(=O)NC(=O)NC1=O

>  <reading>
-5.75

$$$$

Count: 3. Required value per item: log P0 (intrinsic permeability, PAMPA-Certramide).
1. CCC1(c2ccccc2)C(=O)NC(=O)NC1=O
2. Nc1ccccc1
3. C[C@]12CCC(=O)C=C1CC[C@@H]1[C@@H]2CC[C@@]2(C)[C@H]1CC[C@]2(O)C(=O)CO

Resp:
[-6.05, -4.55, -5.45]
